# TEST_TARGET: CRBN/DDB1 (Homo sapiens (Human))
# Sequence (Q96SW2 whole entry, species assumed): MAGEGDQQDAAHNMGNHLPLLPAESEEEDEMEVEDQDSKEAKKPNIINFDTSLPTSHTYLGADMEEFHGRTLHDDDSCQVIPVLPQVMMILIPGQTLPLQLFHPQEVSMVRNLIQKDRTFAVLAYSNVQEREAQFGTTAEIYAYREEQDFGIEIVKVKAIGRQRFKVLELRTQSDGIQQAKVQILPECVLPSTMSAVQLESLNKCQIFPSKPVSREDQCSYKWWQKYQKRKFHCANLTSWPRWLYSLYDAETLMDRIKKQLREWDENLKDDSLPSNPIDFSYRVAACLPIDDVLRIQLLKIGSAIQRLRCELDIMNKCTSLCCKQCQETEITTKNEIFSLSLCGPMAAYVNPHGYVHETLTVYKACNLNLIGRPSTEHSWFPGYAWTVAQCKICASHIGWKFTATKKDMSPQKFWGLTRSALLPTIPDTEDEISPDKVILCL
# Sequence (Q16531 whole entry partner, species assumed): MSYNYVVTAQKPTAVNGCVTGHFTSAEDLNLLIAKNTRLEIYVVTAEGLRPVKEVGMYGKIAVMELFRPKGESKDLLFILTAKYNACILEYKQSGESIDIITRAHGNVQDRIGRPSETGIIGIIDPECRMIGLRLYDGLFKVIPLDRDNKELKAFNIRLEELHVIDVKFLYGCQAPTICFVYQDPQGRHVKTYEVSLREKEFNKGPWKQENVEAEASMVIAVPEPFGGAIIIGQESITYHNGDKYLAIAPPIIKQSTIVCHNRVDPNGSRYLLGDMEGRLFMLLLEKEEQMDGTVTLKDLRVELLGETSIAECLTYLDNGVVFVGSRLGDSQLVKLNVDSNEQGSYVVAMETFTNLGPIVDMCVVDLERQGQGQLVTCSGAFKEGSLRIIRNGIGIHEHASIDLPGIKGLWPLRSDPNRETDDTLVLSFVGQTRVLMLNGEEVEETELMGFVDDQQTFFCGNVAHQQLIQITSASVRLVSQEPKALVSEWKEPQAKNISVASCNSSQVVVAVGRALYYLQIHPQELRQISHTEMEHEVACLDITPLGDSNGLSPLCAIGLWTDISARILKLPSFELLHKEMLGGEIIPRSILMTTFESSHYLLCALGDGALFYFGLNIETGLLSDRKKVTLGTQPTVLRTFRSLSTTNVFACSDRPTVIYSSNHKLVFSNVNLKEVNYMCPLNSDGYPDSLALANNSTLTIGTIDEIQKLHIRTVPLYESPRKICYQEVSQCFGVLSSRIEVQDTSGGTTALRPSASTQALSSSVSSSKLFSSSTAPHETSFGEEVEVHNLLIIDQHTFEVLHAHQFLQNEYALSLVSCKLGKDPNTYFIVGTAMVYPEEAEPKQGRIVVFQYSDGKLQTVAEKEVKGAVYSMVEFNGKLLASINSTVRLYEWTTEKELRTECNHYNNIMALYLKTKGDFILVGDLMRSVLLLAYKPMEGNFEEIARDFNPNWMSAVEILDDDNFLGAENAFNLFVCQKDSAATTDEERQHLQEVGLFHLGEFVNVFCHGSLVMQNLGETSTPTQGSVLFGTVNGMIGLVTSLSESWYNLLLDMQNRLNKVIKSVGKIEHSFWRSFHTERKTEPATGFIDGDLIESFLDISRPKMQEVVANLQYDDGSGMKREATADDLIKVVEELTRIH
# EXPERIMENTAL_PROTOCOL: IC50 measurements for binding to CRBN/DDB1 (HTRF)
# EXPERIMENTAL_SETUP: His tagged CRBN+DDB, Cy5-labeled Thalidomide probe, one hour
ASSAY_READOUT: IC50

COMPOUND	TEST_TARGET	ASSAY_READOUT	VALUE_REPORTED
Nc1n[nH]c2c(CN3CCC3)cc(-c3ccc4c(c3)CN(C3CCC(=O)NC3=O)C4=O)nc12 (stereo not drawn)	CRBN/DDB1 (Homo sapiens (Human))	IC50	< 100 nM
O=C1CCC(N2Cc3cc(-c4cc(CN5CCCC5)c5ccn(CCO)c5n4)ccc3C2=O)C(=O)N1 (stereo not drawn)	CRBN/DDB1 (Homo sapiens (Human))	IC50	1000 to 5000 nM
Cn1ccc2c(CN3CCC(n4ccnc4)CC3)cc(-c3ccc4c(c3)CN(C3CCC(=O)NC3=O)C4=O)nc21 (stereo not drawn)	CRBN/DDB1 (Homo sapiens (Human))	IC50	500 to 1000 nM
COc1cc2c(cc1-c1cc(CN3CCCC3)cc3cncn13)CN(C1CCC(=O)NC1=O)C2=O (stereo not drawn)	CRBN/DDB1 (Homo sapiens (Human))	IC50	1000 to 5000 nM
O=C1CCC(N2Cc3cc(-c4cc(CN5CCCCC5)cc5cncn45)ccc3C2=O)C(=O)N1 (stereo not drawn)	CRBN/DDB1 (Homo sapiens (Human))	IC50	100 to 500 nM
O=C1CCC(N2Cc3cc(-c4cc(CN5CCC(C(F)(F)F)CC5)cn5ccnc45)ccc3C2=O)C(=O)N1 (stereo not drawn)	CRBN/DDB1 (Homo sapiens (Human))	IC50	< 100 nM
C[C@H](c1ccccc1)N(C)Cc1cc(-c2ccc3c(c2)CN(C2CCC(=O)NC2=O)C3=O)n2cncc2c1 (single isomer, unassigned)	CRBN/DDB1 (Homo sapiens (Human))	IC50	1000 to 5000 nM
N#CC1CCN(Cc2cc(-c3ccc4c(c3)CN(C3CCC(=O)NC3=O)C4=O)nc3c2ccn3C2COC2)CC1 (stereo not drawn)	CRBN/DDB1 (Homo sapiens (Human))	IC50	1000 to 5000 nM
Cn1ccc2c(CN3CCCC3CO)cc(-c3ccc4c(c3)CN(C3CCC(=O)NC3=O)C4=O)nc21 (stereo not drawn)	CRBN/DDB1 (Homo sapiens (Human))	IC50	100 to 500 nM
O=C1CCC(N2Cc3cc(-c4cc(CN5CCCC5)c5c(n4)C(=O)NC5)ccc3C2=O)C(=O)N1 (stereo not drawn)	CRBN/DDB1 (Homo sapiens (Human))	IC50	1000 to 5000 nM

Query: So what does the record say about IC50 for Cn1ccc2c(CN3CCCC3)cc(-c3ccc4c(c3F)CN(C3CCC(=O)NC3=O)C4=O)nc21 (stereo not drawn) ?
Response: 100 to 500 nM

Query: // IC50 lookup, key: O=C1CCC(N2Cc3cc(-c4cc(CN5CC6CC6C5)cc5cncn45)ccc3C2=O)C(=O)N1 (stereo not drawn)
Response: 500 to 1000 nM

Query: If you can, please state the reported IC50 value of O=C1CCC(N2Cc3cc(-c4cc(CN5CCCC5)c5nc[nH]c5n4)ccc3C2=O)C(=O)N1 (stereo not drawn) .
Response: 1000 to 5000 nM

Query: Recorded IC50 of O=C1CCC(N2Cc3cc(-c4cc(CN5CCCC5)c5cn(C6CCC6)nc5n4)ccc3C2=O)C(=O)N1 (stereo not drawn) , please.
Response: 100 to 500 nM

Query: Bench note: what IC50 did Nc1nn(C2COC2)c2c(CN3CCCC3)cc(-c3ccc4c(c3)CN(C3CCC(=O)NC3=O)C4=O)nc12 (stereo not drawn) show?
Response: 1000 to 5000 nM
